meta.source: patent US20210371516A1

TARGET_OR_TEST_SYSTEM: antigen on NCI-H187 classic small cell lung carcinoma cells (ATCC Number: CRL-5804) recognised by PTA-2357
PROTOCOL_TEXT: competition flow cytometry on NCI-H187 cells against mouse PTA-2357; CHO-K1-derived
MEASUREMENT_LABEL: Relative IC50 (fold of chimeric PTA-2357)

# example entries with known answers
BINDER	TEST_VALUE
PTA-2357 VH5/VK1 IgG1 antibody (antibody, V domains shown) VH: QVQLVQSGAEVKKPGASVKVSCKGSGYPFTDYTIHWVRQAPGQGLEWIGHISTYSGNTNNNQKFKGRVTMTVDKSTSTAYMELRSLRSDDTAVYYCARGDYYGSFYKFEYWGQGTTVTVSS VL: DIKMTQSPSSLSASVGDRVTITCGASENIYGALNWFQRKQGKAPKLLIYGATNLADGMPSRFSGSGSGRDFTLTISSLQPEDFATYFCQNVLSIPYTFGQGTQLEIK	> 3
PTA-2357 VH5/VK3 IgG1 antibody (antibody, V domains shown) VH: QVQLVQSGAEVKKPGASVKVSCKGSGYPFTDYTIHWVRQAPGQGLEWIGHISTYSGNTNNNQKFKGRVTMTVDKSTSTAYMELRSLRSDDTAVYYCARGDYYGSFYKFEYWGQGTTVTVSS VL: DIQMTQSPSSLSASVGDRVTITCGASENIYGALNWFQRKPGKAPKLLIYGATNLADGMPSRFSGSGSGRDFTLTISSLQPEDFATYFCQNVLSIPYTFGQGTKLEIK	> 3

Pending binder:
Prompt line: May I ask what Relative IC50 (fold of chimeric PTA-2357) has been recorded for PTA-2357 VH3/VK2 IgG1 antibody (antibody, V domains shown) VH: QVQLVQSGAEVKKPGASVKVSCKGSGYPFTDYTIHWVRQAPGQGLEWIGHISTYSGNTNNNQKFKGRATMTVDKSTSTAYMELRSLRSDDTTVYYCARGDYYGSFYKFEYWGQGTTVTVSS VL: DIKMTQSPSSLSASVGDRVTITCGASENIYGALNWFQRKPGKAPKLLIYGATNLADGMPSRFSGSGSGRDFTLTISSLQPEDFATYFCQNVLSIPYTFGQGTKLEIK ?
Response line: 1.57
